- assay remarks: Novel Modifiers of Survival Motor Neuron (SMN) Protein: Gene Identification via Genome-wide siRNA Screen;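 also: luminescence tracks full-length SMN protein made from the SMN2 reporter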
- experimental context: HEK293T SMN2-luciferase reporter, siRNA knockdown, 72 h; actives lie on both sides
Out of some 31,000 sequences screened, about 1,400 (4.5%) were called active.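 The calls were made as follows: active = median seed-adjusted z-score above 1 or below -1; inactive = the rest.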 The full list was thinned out, with actives kept by preference.
The reply should name one outcome from true (1) (active), false (0) (inactive)

Q: GET /call?item= UCCAGCAAGUGGCCAAGAATT against DUPD1 returns the recorded outcome of this test.
Ans: false (0)

Q: Tell me the recorded outcome of this test for AGAGCAUCCUAAACGACCATT against SMUG1 .
Ans: true (1)

Q: Hello, I am checking results. What call was entered for GGGUCAUGUUUGGUUAGAATT against IMMP1L ?
Ans: false (0)

Q: Name the outcome recorded for CGAGGACAUUGAUAACGAATT against CCNB2 in the assay.
Ans: false (0)

Q: Give the logged outcome of this assay for the following sequence: GAAAUGACAUUAGCUGAUUTT against CLIC4
Ans: false (0)

Q: Lab log entry: GCUACGGCGUGGACAAGAATT against RELB — outcome as called in the assay?
Ans: true (1)
